Target: GSTO1 (Homo sapiens)
Sequence (P78417 1-241): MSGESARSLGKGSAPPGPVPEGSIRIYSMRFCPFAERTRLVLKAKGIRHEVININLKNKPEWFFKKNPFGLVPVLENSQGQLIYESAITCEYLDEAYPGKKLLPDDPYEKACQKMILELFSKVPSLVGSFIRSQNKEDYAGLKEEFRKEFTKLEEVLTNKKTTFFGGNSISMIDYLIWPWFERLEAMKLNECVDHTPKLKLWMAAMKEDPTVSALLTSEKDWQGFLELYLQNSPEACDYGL
Experiment: In-gel fluorescence competitive CMFDA binding assay, recombinant GSTO1
Settings: inhibition of CMFDA binding
Label 1.0 when GSTO binding assay (% Inhibition at 10 µM) Recombinant is at or above 60%; otherwise label 0.0.

Consider the following illustrative entries.
| COMPOUND | ASSAY_SYSTEM | CLASS |
| --- | --- | --- |
| CCOC(=O)c1c(-c2ccc(OC)c(OC)c2)csc1NC(=O)CCl | GSTO1 (Homo sapiens) | 1.0 |
| Cc1cc(C)c(-c2csc(NC(=O)CCl)n2)cc1C | GSTO1 (Homo sapiens) | 1.0 |
| Cc1ccc(C)c(S(=O)(=O)N2CCN(C(=O)CCl)CC2)c1 | GSTO1 (Homo sapiens) | 1.0 |
| COc1cc(C(=O)NNC(=O)CCl)cc(OC)c1OC | GSTO1 (Homo sapiens) | 0.0 |

Please indicate if the recorded GSTO binding assay (% Inhibition at 10 µM) Recombinant for COc1cc(CCNC(=O)CCl)ccc1OC(F)F meets or exceeds 60%.
0.0

Same lookup for O=C(CCl)N1CCN(Cc2cccc3ccccc23)CC1 , please.
1.0

Can you handle NC(=O)C1CN(C(=O)CCl)c2ccccc2O1 (stereo not shown) next?
0.0

Next up: O=C(CCl)N1CCc2cc([N+](=O)[O-])ccc21
1.0

Please give the result for CCOc1ccc(/C=C/C2=Cc3c(sc(NC(=O)CCl)c3C#N)C(C)(C)C2)cc1 too.
1.0
